Quantity Kind: melting point

Task item: Could you share which melting point value was measured for COCC=Cc1nc(C(=O)NCCOC)c(O)c2ncc(Cc3ccc(F)cc3)cc12 ?
Reply: 125 to 126 °C

Task item: # melting point lookup, item CNC(=O)C(=O)Nc1nc(C(=O)NCCO)c(O)c2ncc(Cc3ccc(F)cc3)cc12
Reply: 136 to 137 °C

Task item: Look up melting point: COCC(=O)Nc1nc(C(=O)NCCC(=O)OC)c(O)c2ncc(Cc3ccc(F)cc3)cc12
Reply: 168 to 170 °C

Task item: Looking for the measured melting point of Cc1nc(C(=O)NN(C)C)c(O)c2ncc(Cc3ccc(F)cc3)cc12 , can you help?
Reply: 137 to 139 °C

Task item: Any idea what its melting point is? The compound is COCCNC(=O)c1nc(C(C)O)c2cc(Cc3ccc(F)cc3)cnc2c1O (centres unmarked)
Reply: 179 °C
